# Study target: F-actin-Tm composite thin filament (rabbit, UniProt P68135 1-377; P58772 1-284)
# Test details: SPR
Measurement type: koff (s⁻¹)

Here are 2 binders together with their reported answers.
1) SKTRGNAKVTGRWK (peptide, UniProt P45379-6 275-288, looked up) [Human cTnT-C14 peptide containing HCM-linked mutation K280N]; 0.041
2) SKTRGKAKVTGCWK (peptide, UniProt P45379-6 275-288, looked up) [Human cTnT-C14 peptide containing HCM-linked mutation R286C]; 0.0256

[1] SKTRGKAKVTGRWK (peptide, UniProt P45379-6 275-288, looked up)
[2] SKTCGKAKVTGRWK (peptide, UniProt P45379-6 275-288, looked up) [Human cTnT-C14 peptide containing HCM-linked mutation R278C]
Which entry has a larger number for koff, 1 or 2 ? Use the label to indicate which entry you chose.
1
